Entries and their Ki
- study target: Histone deacetylase 4 (Homo sapiens, UniProt P56524)
- Sequence (P56524 whole entry): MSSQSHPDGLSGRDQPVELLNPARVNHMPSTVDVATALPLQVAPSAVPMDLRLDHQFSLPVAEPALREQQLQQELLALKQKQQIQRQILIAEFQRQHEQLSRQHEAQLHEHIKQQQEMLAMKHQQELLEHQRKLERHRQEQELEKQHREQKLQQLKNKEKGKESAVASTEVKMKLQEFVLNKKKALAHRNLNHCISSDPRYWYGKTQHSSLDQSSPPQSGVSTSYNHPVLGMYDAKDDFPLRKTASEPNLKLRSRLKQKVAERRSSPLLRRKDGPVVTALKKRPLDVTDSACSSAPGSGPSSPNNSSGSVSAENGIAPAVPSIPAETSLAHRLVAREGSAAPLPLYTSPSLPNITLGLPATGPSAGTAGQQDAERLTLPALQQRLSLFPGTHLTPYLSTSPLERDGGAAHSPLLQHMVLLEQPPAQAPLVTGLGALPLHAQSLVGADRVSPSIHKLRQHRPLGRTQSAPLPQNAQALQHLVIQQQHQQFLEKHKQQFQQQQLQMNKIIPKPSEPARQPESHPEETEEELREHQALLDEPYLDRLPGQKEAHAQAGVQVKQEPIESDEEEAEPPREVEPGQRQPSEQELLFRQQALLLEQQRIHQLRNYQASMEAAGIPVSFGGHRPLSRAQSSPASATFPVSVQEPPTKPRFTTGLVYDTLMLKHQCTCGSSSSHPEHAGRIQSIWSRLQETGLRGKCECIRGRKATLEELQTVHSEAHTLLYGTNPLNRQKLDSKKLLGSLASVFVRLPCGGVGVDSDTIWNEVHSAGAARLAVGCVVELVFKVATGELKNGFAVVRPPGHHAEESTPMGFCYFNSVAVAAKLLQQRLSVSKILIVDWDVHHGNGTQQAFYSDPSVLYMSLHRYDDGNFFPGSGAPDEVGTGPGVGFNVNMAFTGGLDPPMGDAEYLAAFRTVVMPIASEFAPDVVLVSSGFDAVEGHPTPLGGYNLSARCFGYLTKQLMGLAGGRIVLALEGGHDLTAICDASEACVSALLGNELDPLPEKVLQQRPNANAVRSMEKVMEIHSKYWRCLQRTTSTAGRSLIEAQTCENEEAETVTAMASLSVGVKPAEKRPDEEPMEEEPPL
- assay overview: Inhibition of human recombinant HDAC4 using fluorogenic HDAC substrate class 2a after 30 mins by fluorimetrc method

Before answering, review these 2 worked examples.
CC(Nc1c(NCCCCCC(=O)NO)c(=O)c1=O)C12CC3CC(CC(C3)C1)C2 (stereo not drawn)	> 10 µM
CC(C)(CCCCC(=O)NO)Nc1c(Nc2ccc(C(F)(F)F)cc2)c(=O)c1=O	3.4 µM

IN: What Ki value was documented for this molecule, COc1ccc(Nc2c(NCCCCCC(=O)NO)c(=O)c2=O)cc1 ?
OUT: > 10 µM

====

- study target: UniProt:Q9NTG7
- Sequence (Q9NTG7 whole entry): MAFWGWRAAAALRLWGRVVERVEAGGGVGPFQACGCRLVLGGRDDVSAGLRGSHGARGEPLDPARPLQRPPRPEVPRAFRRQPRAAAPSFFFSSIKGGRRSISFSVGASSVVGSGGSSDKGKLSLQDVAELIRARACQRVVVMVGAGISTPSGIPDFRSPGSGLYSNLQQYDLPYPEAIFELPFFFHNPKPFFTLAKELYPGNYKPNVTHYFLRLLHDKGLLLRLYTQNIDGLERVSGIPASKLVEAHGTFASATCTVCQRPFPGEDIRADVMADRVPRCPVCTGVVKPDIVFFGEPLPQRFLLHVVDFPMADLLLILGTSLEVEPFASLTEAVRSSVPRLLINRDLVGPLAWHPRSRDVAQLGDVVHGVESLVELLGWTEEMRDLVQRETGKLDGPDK
- assay overview: Inhibition of human recombinant SIRT3 using fluoro-lysine sirtuin 2 deacetylase substrate after 45 mins by fluorimetrc method
reported property: Ki

Before answering, review these 4 worked examples.
Cc1[nH]c2ccccc2c1CCNCc1ccc(/C=C/C(=O)NO)cc1 [PANOBINOSTAT]	> 10 µM
CC(C)(CCCCC(=O)NO)Nc1c(Nc2ccc(C(F)(F)F)cc2)c(=O)c1=O	> 10 µM
COc1ccc(Nc2c(NCCCCCC(=O)NO)c(=O)c2=O)cc1	> 10 µM
Cn1cc(CNCC2CCN(c3ncc(C(=O)NO)cn3)CC2)c2ccccc21 [QUISINOSTAT]	> 10 µM

Query molecule follows.
IN: What Ki value was documented for this molecule, CC(Nc1c(NCCCCCC(=O)NO)c(=O)c1=O)C12CC3CC(CC(C3)C1)C2 (stereo not given) ?
OUT: > 10 µM

====

- study target: UniProt:Q13547
- Sequence (Q13547 whole entry): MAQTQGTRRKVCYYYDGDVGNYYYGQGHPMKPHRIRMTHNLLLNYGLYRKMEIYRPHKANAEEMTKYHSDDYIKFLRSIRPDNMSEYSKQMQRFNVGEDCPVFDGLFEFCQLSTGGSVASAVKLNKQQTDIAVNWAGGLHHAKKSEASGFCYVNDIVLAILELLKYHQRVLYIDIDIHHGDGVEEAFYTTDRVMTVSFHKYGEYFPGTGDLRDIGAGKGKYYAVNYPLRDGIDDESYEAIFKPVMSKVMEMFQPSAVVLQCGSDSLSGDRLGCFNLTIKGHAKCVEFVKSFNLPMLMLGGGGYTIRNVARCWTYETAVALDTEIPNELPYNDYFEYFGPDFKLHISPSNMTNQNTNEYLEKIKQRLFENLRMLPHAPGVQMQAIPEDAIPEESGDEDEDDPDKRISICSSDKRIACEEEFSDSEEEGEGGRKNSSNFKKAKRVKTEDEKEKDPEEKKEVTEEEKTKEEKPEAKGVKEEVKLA
- assay overview: Inhibition of human recombinant HDAC1 using Fluor de Lys as substrate after 2 hrs by fluorescence method
reported property: Ki (nM)

Before answering, review these 5 worked examples.
COc1ccc(Nc2c(NCCCCCC(=O)NO)c(=O)c2=O)cc1	0.075
CCC(CCCCC(=O)NO)Nc1c(Nc2ccc(C(F)(F)F)cc2)c(=O)c1=O (racemic)	0.51
O=C(CCCCCNc1c(NCc2ccccc2)c(=O)c1=O)NO	7.3
COc1ccc(Nc2c(NC3(CCCCC(=O)NO)CCC3)c(=O)c2=O)cc1	0.063
CC(C)(Nc1c(NCCCCCC(=O)NO)c(=O)c1=O)c1ccccc1	11

I: CC(CCCCC(=O)NO)Nc1c(Nc2ccccc2)c(=O)c1=O (racemic)
II: C[C@@H](Nc1c(NCCCCCC(=O)NO)c(=O)c1=O)c1ccccc1
III: Cc1cccc([C@@H](C)Nc2c(NCCCCCC(=O)NO)c(=O)c2=O)c1
IN: Parameters: sort_field (Ki), sort_dir (desc). Output spec: labels arranged per the requested ranking.
OUT: III, II, I
(III: 11 nM, II: 4.8 nM, I: 0.69 nM)

a: Cc1ccc(Nc2c(NC(C)CCCCC(=O)NO)c(=O)c2=O)cc1 (racemic)
b: C[C@H](Nc1c(NCCCCCC(=O)NO)c(=O)c1=O)c1ccccc1
c: COc1ccc(Nc2c(NC(C)(C)CCCCC(=O)NO)c(=O)c2=O)cc1
IN: Parameters: sort_field (Ki), sort_dir (desc). Output spec: labels arranged per the requested ranking.
OUT: b, a, c
(b: 2.5 nM, a: 0.097 nM, c: 0.056 nM)

A: CC[C@H](Nc1c(NCCCCCC(=O)NO)c(=O)c1=O)c1ccccc1
B: Cc1cccc(Nc2c(NCCCCCC(=O)NO)c(=O)c2=O)c1
IN: Of A and B , which shows the smaller Ki value? Respond with the label that goes with your answer.
OUT: B
(B: 0.39 nM, A: 9.4 nM)
